- measurement_notes: qHTS of pediatric cancer cell lines to identify multiple opportunities for drug repurposing: Primary screen for NB1643 cells (AID 1347099); also: nearly all actives have a fitted effect of over 50% in size
- condition_context: NB1643 neuroblastoma viability, CellTiter-Glo luminescence, 48 h; series mostly up to 46 µM
Records with an inconclusive call do not appear. Active and inactive are the calls of the source. Calls follow the shape of the dose curve; as a rule, active = well fitted cell-killing curve with a large enough effect; inconclusive = small, poorly fitted or top-dose-only effect; inactive = no such curve, though single readings can be large or run the other way.
Field 'call' accepts active, inactive

Example entries begin here.
C[C@]1(c2nc3c(C(N)=O)cccc3[nH]2)CCCN1 ... active
CCOC(=O)C1=C[C@]2(CC)CCCN3CCc4c(n1c1ccccc41)[C@@H]32 ... inactive
Cc1ccccc1C(OCCN(C)C)c1ccccc1 (configuration not stated) ... inactive
CC(c1cc2ccccc2s1)N(O)C(N)=O (configuration not stated) ... inactive
N[C@@H]1CONC1=O ... inactive
CCOc1ccc(Cc2cc([C@@H]3O[C@H](CO)[C@@H](O)[C@H](O)[C@@H]3O)ccc2Cl)cc1 ... inactive
c1ccc([C@H]2CN3CCSC3=N2)cc1 ... inactive
Cc1cc(Nc2nc(N[C@@H](C)c3ncc(F)cn3)ncc2Cl)n[nH]1 ... active

Task item: What is the recorded call for this compound in the test? `Cc1cnc(NC(=O)C2=C(O)c3ccccc3S(=O)(=O)N2C)s1`
Reply: inactive

Task item: What is the recorded call for this compound in the test? `N#CC[C@H](C1CCCC1)n1cc(-c2ncnc3[nH]ccc23)cn1`
Reply: active

Task item: What is the recorded call for this compound in the test? `N=c1nc(N2CCCCC2)cc(N)n1O`
Reply: inactive

Task item: What is the recorded call for this compound in the test? `Cc1cccc(-c2[nH]c(C(C)(C)C)nc2-c2ccc3nccnc3c2)n1`
Reply: active

====

- measurement_notes: qHTS for small molecule inhibitors of Yes1 kinase: Counter Assay (AID 686950);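 also: no kinase present so only ADP-Glo detection of a fixed ADP amount is tested; luminescence from ADP-Glo reporting ADP in a fixed ATP and ADP mixture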
- condition_context: series mostly up to 76.9 µM
Calls of active or inactive are those of the source. Calls follow the shape of the dose curve; as a rule, active = well fitted curve in the direction sought with a large enough effect; inactive = no such curve, though single readings can be large or run the other way.
endpoint_label: outcome

A selection of reference data follows.
COc1ccc(-c2c(-c3ccc(O)cc3O)n[nH]c2C)cc1 ... inactive
CCOc1cc(C(=O)Nc2ccc(Cl)c(-c3nc4ccccc4[nH]3)c2)cc(OCC)c1OCC ... inactive
CCCc1nn(C)c2c(=O)[nH]c(-c3cc(S(=O)(=O)N4CCN(C)CC4)ccc3OCC)nc12 ... inactive
c1ccc(-c2nn3c(c2-c2ccnc4cc(OCCN5CCOCC5)ccc24)CCC3)nc1 ... inactive
CC(=O)NC(C)c1ccc(Oc2ccc(OC(C)C)cc2)cc1 (stereo not given) ... inactive
Nc1nc2ccc(OC(F)(F)F)cc2s1 ... inactive
Cc1c(C)c2c(c(C)c1O)CCC(C)(COc1ccc(CC3SC(=O)NC3=O)cc1)O2 (stereo not given) ... inactive
O=C1[C@H](Cc2ccc(O)cc2)N2C(=O)CCN(C(=O)NCc3ccccc3)[C@H]2CN1Cc1cccc2ccccc12 ... inactive

GET /value?item= `O=C(O)[C@@H](c1ccc(OCc2ccc3ccccc3n2)cc1)C1CCCC1` &field=outcome returns inactive

GET /value?item= `NC(=O)c1ccc(-c2nc(-c3ccc4c(c3)OCO4)c(-c3ccccn3)[nH]2)cc1` &field=outcome returns inactive

GET /value?item= `CCOC(=O)C1=C[C@@]2(CC)CCCN3CCc4c(n1c1ccccc41)[C@H]32` &field=outcome returns inactive

GET /value?item= `CCC(=O)N[C@H]1CC[C@H](C(=O)N(C)c2ccc(-c3nc4ccccc4o3)cc2)C1` &field=outcome returns inactive

GET /value?item= `COc1nc(-c2ccc3c(c2)OCO3)n(-c2ccc(NC(=O)CSc3ccccc3)cc2)n1` &field=outcome returns inactive

GET /value?item= `CC1(C)Cc2c(-c3ccccc3)c(-c3ccc(Cl)cc3)c(CC(=O)O)n2C1` &field=outcome returns inactive

GET /value?item= CC(c1cc2ccccc2s1)N(O)C(N)=O (stereo not given) &field=outcome returns inactive

GET /value?item= `CN(C)c1ccc(Nc2nc(N)n(C(=O)c3c(F)cccc3F)n2)cc1` &field=outcome returns inactive

GET /value?item= O=C1CCCC2=C1C(c1[nH]ncc1Cl)N=C(Nc1nc3ccccc3o1)N2 (stereo not given) &field=outcome returns inactive
